# system: hERG ion channel (Homo sapiens, UniProt Q12809)
# Construct: host or cells: HEK293
# Sequence (Q12809 whole entry): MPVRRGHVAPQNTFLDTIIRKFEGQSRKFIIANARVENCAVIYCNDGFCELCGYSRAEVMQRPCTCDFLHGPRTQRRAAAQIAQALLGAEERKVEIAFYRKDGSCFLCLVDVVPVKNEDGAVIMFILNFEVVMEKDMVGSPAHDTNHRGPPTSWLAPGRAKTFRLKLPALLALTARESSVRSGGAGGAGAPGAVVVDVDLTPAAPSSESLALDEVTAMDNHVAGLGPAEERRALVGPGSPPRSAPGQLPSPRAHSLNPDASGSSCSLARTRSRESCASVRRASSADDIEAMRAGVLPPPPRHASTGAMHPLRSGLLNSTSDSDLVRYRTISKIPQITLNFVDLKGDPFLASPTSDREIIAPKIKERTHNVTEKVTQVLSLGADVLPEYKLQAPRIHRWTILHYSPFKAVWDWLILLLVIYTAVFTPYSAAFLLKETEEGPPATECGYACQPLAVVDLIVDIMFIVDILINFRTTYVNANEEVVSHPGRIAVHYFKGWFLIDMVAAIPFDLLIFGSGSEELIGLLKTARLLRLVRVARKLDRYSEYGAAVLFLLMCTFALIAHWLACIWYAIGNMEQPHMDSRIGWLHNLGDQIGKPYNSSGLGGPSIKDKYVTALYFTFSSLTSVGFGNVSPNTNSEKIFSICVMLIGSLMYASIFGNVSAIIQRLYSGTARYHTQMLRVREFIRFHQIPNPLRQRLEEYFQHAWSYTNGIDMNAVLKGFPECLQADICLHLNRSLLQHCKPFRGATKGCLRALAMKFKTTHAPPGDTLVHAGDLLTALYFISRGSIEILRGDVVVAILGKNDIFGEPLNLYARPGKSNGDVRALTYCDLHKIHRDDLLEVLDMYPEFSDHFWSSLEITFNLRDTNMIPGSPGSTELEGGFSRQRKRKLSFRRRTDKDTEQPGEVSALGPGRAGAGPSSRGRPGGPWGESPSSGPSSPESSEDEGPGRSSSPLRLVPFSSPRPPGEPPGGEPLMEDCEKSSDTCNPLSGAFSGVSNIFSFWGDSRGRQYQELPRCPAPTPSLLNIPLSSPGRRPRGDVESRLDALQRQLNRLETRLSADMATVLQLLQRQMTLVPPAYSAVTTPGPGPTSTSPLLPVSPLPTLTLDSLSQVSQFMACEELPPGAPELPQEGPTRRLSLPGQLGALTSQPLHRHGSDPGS
# methodDescription: Inhibitory effect on hERG ion channels (manual patch clamp)
# Format: cell-based
# conditionDetails: HEK293 cells stably expressing hERG channels, read-out: hERG (IC50, manupatch)
propertyLabel: IC50 (µM)
Hi! Could you send only the number? It should be in µM, unit omitted.

molecule: Cn1c(=O)n(C2CCC(=O)NC2=O)c2cccc(C#CCOC3CCN(C[C@H]4CC[C@H](n5cc(NC(=O)c6cnn7ccc(N8C[C@H]9C[C@@H]8CO9)nc67)c(C(F)F)n5)CC4)CC3)c21 (some centres unmarked) [KT474, reference compound]
propertyLabel: IC50
u: µM
resultValue: 2.65

Pending molecule:
Exam item: Given the entry Cn1c(=O)n(C2CCC(=O)NC2=O)c2cccc(N3CCC(N4CCN(C[C@H]5CC[C@H](n6cc(-n7cc(-c8cnn9ccc(N%10CCC[C@H](O)C%10)nc89)nn7)c(C(F)F)n6)CC5)CC4)CC3)c21 (some centres unmarked) [Example 146] , report its measured IC50.
Marked response: 7.06
